# System: Vero E6
# assay_explanation: cell viability relative to DMSO; higher = less toxic
# condition_info: 72 h; 10 nM
value_type: cell viability (%)

smiles_input: COc1cc(N)c(Cl)cc1C(=O)OCCN1CCCCC1
numeric_readout: 97.3
//
smiles_input: CC(=O)NCCc1c(Cc2ccccc2)[nH]c2ccccc12
numeric_readout: 99
//
smiles_input: O=c1c(-c2ccc(O)cc2)coc2cc(O)cc(O)c12
numeric_readout: 108
//
smiles_input: CCN(CC)C(=O)/C(C#N)=C/c1cc(O)c(O)c([N+](=O)[O-])c1
numeric_readout: 99.2
//
smiles_input: CCN(C)C(=O)Oc1cccc([C@H](C)N(C)C)c1
numeric_readout: 106
//
smiles_input: N#C[C@@H]1C[C@@H]2C[C@@H]2N1C(=O)[C@@H](N)C12CC3CC(CC(O)(C3)C1)C2
numeric_readout: 104
//
smiles_input: O=C(Nc1ccccc1F)N[C@H]1N=C(c2ccccc2)c2ccccc2NC1=O
numeric_readout: 101
//
smiles_input: CCCCc1nc(Cl)c(C(=O)O)n1Cc1ccc(-c2ccccc2-c2nn[nH]n2)cc1
numeric_readout: 109
//
smiles_input: Cn1ncc(Cl)c1-c1cc(C(=O)N[C@H](CN)Cc2ccc(F)c(F)c2)oc1Cl
numeric_readout: 102
